Each entry below carries its reported growth.
tested on: HCT-15 colon; test: NCI-60 one-dose screen, 48 h (100 = growth as untreated, 0 = no growth, -100 = all killed); conditions: 10 µM unless noted
The panel holds about 83,000 compounds, 20% with a hit somewhere; the sample as a whole holds those more often.
ATTRIBUTE_MEASURED: growth (%)

{"INPUT_SMILES": "CCC(=O)OCc1cccc(OC)c1", "VAL": 92.2}
{"INPUT_SMILES": "COc1cc(-c2cnc3nonc3n2)c(OC)c2c1OCO2", "VAL": 87.5}
{"INPUT_SMILES": "COc1ccc(S(=O)(=O)NCCCNc2nccc(-c3c(-c4cccc(N)c4)nc4sccn34)n2)cc1", "VAL": 89.2}

Where do these numbers come from? They come from PubChem BioAssay (NCI).
